Reference source for all entries: PubChem BioAssay AID1259415

# ASSAY SUMMARY: qHTS Assay for inhibitors of the human cytomegalovirus (HCMV); note: % is set by controls: 0 for no effect and ±100 for the full control effect
# EXPERIMENTAL CONDITIONS: HFF cells, HCMV-luciferase reporter, 72 h; at 57.5 µM; stronger effect = lower value
# Method: NCGC Assay Overview: Infection with human cytomegalovirus (HCMV) continues to pose significant threats for pregnant women and immunocompromised hosts. […] This is a cell-based assay for HCMV inhibition in HFFs cells. […] At 72 h post infection cell lysates were collected and luciferase activity was determined using the Glomax-Multi + Detection System (Promega, Madison, WI). […]
Among all 410,000 compounds or so, about 18,000 (4.4%) were called active. About 7% were inconclusive and are not listed. Only a selection was taken, and actives are over-represented in it overall.
MEASURED ENDPOINT: activity change, negative = inhibition (%)
Form entry: value (%) — number only.

For orientation, consider the following solved cases.
MOLECULE: Cc1cc(S(=O)(=O)NCC(C)C)ccc1OCC(=O)NC1CC1
UNIT: %
activity change, negative = inhibition: -9.36
--
MOLECULE: O=C(COC(=O)Cc1c[nH]c2ccccc12)NCCc1ccccc1
UNIT: %
activity change, negative = inhibition: 10.5
--
MOLECULE: CCOc1ccc(Nc2oc(/C=C/c3ccc(F)cc3)nc2C#N)cc1
UNIT: %
activity change, negative = inhibition: 11.4
--
MOLECULE: c1cncc(CNCCc2c[nH]c3ccccc23)c1
UNIT: %
activity change, negative = inhibition: -8.49

Now consider a different molecule.
Memo: COc1ccc(S(=O)(=O)N2CCN(C(=O)c3cccs3)CC2)cc1OC , reported activity change, negative = inhibition: 1.26
